Molecular target: Cynomolgus T cell receptor on cynomolgus primary T cells (cynomolgus monkey)
Assay: cell-based or functional assay
PROPERTY NAME: % lysis, MOLM-13, Cynomolgus T cell mediated killing

* T017000634 (bispecific antibody, also called A0110056A10(E1D)-35GS-T0170056G05(L11V, D27Y, L34Y, M77T, K83R, V89L, F91Y, F95L, Y99W)-A) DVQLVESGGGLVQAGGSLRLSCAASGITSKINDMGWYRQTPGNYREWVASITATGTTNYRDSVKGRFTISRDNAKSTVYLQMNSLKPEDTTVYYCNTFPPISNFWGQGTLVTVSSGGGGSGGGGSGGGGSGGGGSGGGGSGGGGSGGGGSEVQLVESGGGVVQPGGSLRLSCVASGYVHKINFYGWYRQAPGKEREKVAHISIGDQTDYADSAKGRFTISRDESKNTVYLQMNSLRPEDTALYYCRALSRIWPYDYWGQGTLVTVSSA | 33%
